Target system: CYP3A4 (Homo sapiens)
Sequence (P08684 whole entry): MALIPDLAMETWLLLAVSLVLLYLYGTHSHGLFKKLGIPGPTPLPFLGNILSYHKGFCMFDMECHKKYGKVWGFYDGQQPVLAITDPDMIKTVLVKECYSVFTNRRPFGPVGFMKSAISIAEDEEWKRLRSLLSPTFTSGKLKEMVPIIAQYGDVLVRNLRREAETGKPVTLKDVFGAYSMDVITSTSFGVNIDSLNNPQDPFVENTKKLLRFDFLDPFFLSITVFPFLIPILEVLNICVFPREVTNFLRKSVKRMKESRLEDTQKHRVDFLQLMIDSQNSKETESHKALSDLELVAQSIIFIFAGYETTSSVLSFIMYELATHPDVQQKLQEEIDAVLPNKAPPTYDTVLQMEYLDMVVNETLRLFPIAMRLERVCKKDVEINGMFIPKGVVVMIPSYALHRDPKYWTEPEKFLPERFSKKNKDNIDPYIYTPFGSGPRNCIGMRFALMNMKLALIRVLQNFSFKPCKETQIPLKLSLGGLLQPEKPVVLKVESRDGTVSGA
Run description: Inhibition of hepatic CYP3A4 at 1 uM
Format: ADME
Measured property: inhibition at 1 µM (%)

These solved cases illustrate the format of a correct answer.
INSERT INTO assay_data (compound, reported_value) VALUES
  ('COc1ccc2cc(-c3ccc(F)cc3)ccc2c1-c1cccnc1', 64),
  ('CC(=O)N1CCN(c2ccc(OCC3COC(Cn4ccnc4)(c4ccc(Cl)cc4Cl)O3)cc2)CC1 (stereo unspecified)', 1),
  ('C[C@]12CC[C@H](O)CC1=CC[C@@H]1[C@@H]2CC[C@]2(C)C(c3cccnc3)=CC[C@@H]12', 7),
  ('COc1ccc2cc(-c3ccc(F)cc3)ccc2c1Cn1ccnc1', 93);

I: COc1ccc2cc(-c3cccc(Cn4ccnc4)c3)ccc2c1
II: Oc1ccc2cc(-c3cccc(-c4ccncc4)c3)ccc2c1
# input Hey, which is lower on measured inhibition at 1 µM, I or II ? Choose, then provide that item's label.
# output II
(II: 6%, I: 91%)
